Origin of measurements: PubChem BioAssay (EPA / NIEHS)

# assay-method-text: APR_HepG2_MicrotubuleCSK_24hr: Apredica 24-hour HepG2 Assay for Microtubule CSK Stabilty (AID 2282909)
# settings: HepG2 microtubule cytoskeleton imaging, actives raise or lower the signal
Calls of active or inactive are those of the source. Rule for the calls: active = hit-call score of the fitted dose curve at least 0.9, where 1 is the maximum; inactive = score below 0.9.
In this exercise, the only acceptable responses are 1 (yes) (active), 0 (no) (inactive)

Record lookup: outcome of this test for `CCCCC=O` ? 0 (no)

Name the outcome recorded for `OCC(CO)(CBr)CBr` in the assay. 0 (no)

What classification did `CN(Cc1cnc2nc(N)nc(N)c2n1)c1ccc(C(=O)N[C@@H](CCC(=O)O)C(=O)O)cc1` end up with in this test? 0 (no)

Continuing:
Fill in: this test's call for `Cc1[nH]nc2c1N=C(c1ccccc1Cl)c1cc([N+](=O)[O-])ccc1N2` is ___ 0 (no)

Tell me the assay call for `CCCCCCCCCCCCOS(=O)(=O)O` please. 0 (no)

Tell me the recorded outcome of this test for `N=C(N)c1ccc(OCCCCCOc2ccc(C(=N)N)cc2)cc1` . 1 (yes)

Please state the recorded outcome for this compound: `O=C1NS(=O)(=O)c2ccccc21` 0 (no)

Answer briefly: the call reported for `CCCCCCCCCCCCCCC` in this assay. 0 (no)

* * *

# Read-out: Secreted IgG (sIgG), gene 3500
# assay-method-text: BSK_BT_sIgG: BioMAP Diversity Plus: BT Assay for Secreted IgG (sIgG) Biomarker Activity (AID 2284226)
# settings: primary human B cells with PBMC
Calls of active or inactive are those of the source. The calls were made as follows: active = hit-call score of the fitted dose curve at least 0.9, where 1 is the maximum; inactive = score below 0.9.
Outcome field: choose from active, inactive

Completed entries (count: 5):
Recorded call for `Oc1cc2ccccc2cc1O` ? inactive

Entry `Cc1ccc(C(=O)c2ccccc2)cc1` : call = ? inactive

Recorded call for `Clc1ccc(Nc2nnc(Cc3ccncc3)c3ccccc23)cc1` ? active

// param item: `CCCCCCCCCCCCCCCCCC[N+](C)(C)Cc1ccccc1` ; yields the recorded call active

Outcome logged for CCCCC(CC)C(=O)OCCOCCOCCOCCOC(=O)C(CC)CCCC (configuration not stated) in this assay: active

New cases:
Field: outcome | Entry: `C=CC(=O)OCCC(F)(F)C(F)(F)C(F)(F)C(F)(F)C(F)(F)C(F)(F)C(F)(F)C(F)(F)F` inactive

Please let me know the test result on file for `CN(CCO)S(=O)(=O)C(F)(F)C(F)(F)C(F)(F)C(F)(F)C(F)(F)C(F)(F)C(F)(F)C(F)(F)F` . inactive

What was the test verdict on `C=COC(=O)C(C)(C)CCCCCC` ? inactive

Outcome? `O=P(O)(O)CCC(F)(F)C(F)(F)C(F)(F)C(F)(F)C(F)(F)C(F)(F)F` inactive

Which outcome was entered for the compound `COc1cccc(O)c1` in this test? inactive

Assay result, entry `CC(C)(C)c1ccc(O)c(O)c1` — outcome? active

* * *

# Read-out: Collagen IV, COL4A1 (gene 1282)
# assay-method-text: BSK_MyoF_CollagenIV: BioMAP Diversity Plus: MyoF Assay for Collagen IV Biomarker Activity (AID 2284247)
# settings: primary human lung fibroblasts
# Experimental: BSK_MyoF is a cell-based, multiplexed-readout assay that uses lung fibroblasts, […], with measurements taken at 24 hours after chemical dosing in a microplate: 96-well plate.BSK_MyoF_CollagenIV is an assay component measured in the BSK_MyoF assay. […] The levels of cell surface (or secreted, indicated by the prefix "s") biomarker endpoints were measured by ELISA. […] Plates were read after 6 h.
The source made the active and inactive calls. How the source made its calls: active means hit-call score of the fitted dose curve at least 0.9, where 1 is the maximum; inactive means score below 0.9.
Use one of these outcomes when replying: active, inactive

Could you please tell me the result logged for `Cc1ccc(N=Nc2c(O)ccc3ccccc23)c(C)c1` in this assay? inactive

Which result was noted for this compound in the test: C=CC(C)(CCC=C(C)C)OC(C)=O (stereo not drawn) inactive

Hi team, can someone confirm the assay call for `O=C(NCc1ncc(C(F)(F)F)cc1Cl)c1c(Cl)cccc1Cl` ? inactive

Others:
Record request — test call for `C[C@]12CC[C@@H]3c4ccc(O)cc4CC[C@H]3[C@@H]1C[C@@H](O)[C@@H]2O` inactive

For `CCOC(=O)CN[C@@H](C(=O)N1CC[C@H]1C(=O)NCc1ccc(/C(N)=N/O)cc1)C1CCCCC1` , which call appears in the assay record? inactive

Call for entry `Clc1ccc(Nc2nnc(Cc3ccncc3)c3ccccc23)cc1` : inactive

Just curious, what result did `O=P(O)(O)CCC(F)(F)C(F)(F)C(F)(F)C(F)(F)C(F)(F)C(F)(F)F` get here? inactive

Dear colleague, could you share the recorded outcome for `O=C(O)CCC(F)(F)C(F)(F)C(F)(F)C(F)(F)C(F)(F)C(F)(F)F` when you have a moment? inactive

Recorded test outcome, item `O=C(NO)c1ccccc1` inactive

* * *

# assay-method-text: ATG_TCF_b_cat_CIS: Attagene CIS-FACTORIAL HepG2 Assay for human T-Cell-Factor with beta-catenin (TCF/b-cat) (AID 2282965)
# settings: HepG2 TCF/beta-catenin cis-reporter transcription, actives raise or lower the signal
Active and inactive are the calls of the source. How the source made its calls: active means hit-call score of the fitted dose curve at least 0.9, where 1 is the maximum; inactive means score below 0.9.
Write down one outcome, taken from active, inactive

Hello, I am checking results. What call was entered for `COc1cccc(O)c1` ? inactive

Query: recorded result category for `COc1cc(OC)nc(NC(=O)NS(=O)(=O)Nc2ccccc2C(=O)N(C)C)n1` in this test inactive

Could you check what this test reported for `OCCN1CN(CCO)CN(CCO)C1` ? inactive

Any idea what this test logged for `c1cc2cccc3c4cccc5cccc(c(c1)c23)c54` ? inactive

How was `O=C(C=C(O)C(F)(F)F)C(F)(F)F` classified in this test? inactive

Please state the recorded outcome for this compound: `C[C@]12CC[C@@H]3c4ccc(O)cc4CC[C@H]3[C@@H]1CC[C@@H]2OC(=O)CCC1CCCC1` inactive

Which outcome did this test record for the compound `CC1=NN(c2ccccc2)C(=O)C1` ? inactive

Hi, do you know how `CCOC=O` came out in this test? inactive

Returns: the outcome recorded for `Cc1cc(=O)oc2cc(O)ccc12` in this assay. inactive

Query: recorded result category for `O=C1NS(=O)(=O)c2ccccc21` in this test inactive

* * *

# assay-method-text: Tanguay_ZF_120hpf_CFIN_legacy: (Legacy) Oregon State University Tanguay Lab 120 Hour Post-fertilization zebrafish Assay for Caudal Fin Malformation (AID 2283649)
Records with an inconclusive call do not appear. The source made the active and inactive calls. The calls were made as follows: active = hit-call score of the fitted dose curve at least 0.9, where 1 is the maximum; inconclusive = response in the unintended direction; inactive = score below 0.9.
quantity: outcome

Worked set:
outcome reported for this compound `O=C(c1ccccc1)c1ccccc1` : inactive

What the record says about `O=C1NS(=O)(=O)c2ccccc21` : outcome is inactive

So, CCC(C)c1ccccc1O (configuration not stated) ? Its outcome was inactive

Form field outcome, entry `OCC(CO)(CBr)CBr` : inactive

Consider `Cc1[nH]nc2c1N=C(c1ccccc1Cl)c1cc([N+](=O)[O-])ccc1N2` . Its measured outcome is inactive

Looking up `CCCCCCCCCCCCOS(=O)(=O)O` , I see its outcome listed as inactive

# evaluate next
Per the record, `CN(Cc1cnc2nc(N)nc(N)c2n1)c1ccc(C(=O)N[C@@H](CCC(=O)O)C(=O)O)cc1` has outcome of inactive

* * *

# Read-out: E-selectin (Homo sapiens) (UniProt P16581)
# Sequence (P16581 whole entry, looked up): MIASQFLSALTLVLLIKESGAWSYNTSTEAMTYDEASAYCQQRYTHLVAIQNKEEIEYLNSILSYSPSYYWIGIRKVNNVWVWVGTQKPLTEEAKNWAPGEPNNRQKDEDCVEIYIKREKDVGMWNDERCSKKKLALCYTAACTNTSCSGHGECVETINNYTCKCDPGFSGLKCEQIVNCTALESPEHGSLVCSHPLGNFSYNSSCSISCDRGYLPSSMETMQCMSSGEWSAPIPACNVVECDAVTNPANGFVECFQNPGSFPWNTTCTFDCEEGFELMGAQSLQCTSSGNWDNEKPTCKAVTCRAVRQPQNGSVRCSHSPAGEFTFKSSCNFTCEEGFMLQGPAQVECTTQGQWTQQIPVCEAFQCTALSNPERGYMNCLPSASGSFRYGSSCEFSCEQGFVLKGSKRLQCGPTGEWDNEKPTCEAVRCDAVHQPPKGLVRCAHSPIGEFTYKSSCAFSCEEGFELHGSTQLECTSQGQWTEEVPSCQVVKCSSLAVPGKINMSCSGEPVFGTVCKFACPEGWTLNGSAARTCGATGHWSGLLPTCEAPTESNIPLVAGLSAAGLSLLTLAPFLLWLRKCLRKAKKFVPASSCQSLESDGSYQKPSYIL
# assay-method-text: BSK_LPS_Eselectin: BioMAP Diversity Plus: LPS Assay for Eselectin Biomarker Activity (AID 2283077)
# settings: primary human HUVEC with PBMC; actives raise or lower the signal
Active and inactive are the calls of the source. Rule for the calls: active = hit-call score of the fitted dose curve at least 0.9, where 1 is the maximum; inactive = score below 0.9.
Outcome field: choose from active, inactive

For `C[C@]12CC[C@@H]3c4ccc(O)cc4CC[C@H]3[C@@H]1C[C@@H](O)[C@@H]2O` , what call appears in the results of this test? inactive

Test call, this molecule: `CCCCc1oc2ccccc2c1C(=O)c1cc(I)c(OCCN(CC)CC)c(I)c1` active

Hi team, can someone confirm the assay call for CCC(C)c1ccccc1O (stereo not drawn) ? inactive

Write down the call the test reported for this molecule. Item: `O=C(O)CCC(F)(F)C(F)(F)C(F)(F)C(F)(F)C(F)(F)F` inactive

Continuing:
For this molecule, state the assay outcome: `CCOC(=O)CN[C@@H](C(=O)N1CC[C@H]1C(=O)NCc1ccc(/C(N)=N/O)cc1)C1CCCCC1` inactive

Outcome logged for `OCC(CO)(CBr)CBr` in this assay: inactive

What classification did `Cc1cccc2c1ccc1ccccc12` end up with in this test? inactive

What call does the record list for `CC[N+](CC)(CC)Cc1ccccc1` ? inactive

Recorded call for CCCCC(CC)C(=O)OCCOCCOCCOCCOC(=O)C(CC)CCCC (stereo not drawn) ? inactive

Tell me the recorded outcome of this test for `O=C(CC(=O)C(F)(F)C(F)(F)C(F)(F)F)c1cccs1` . inactive

* * *

# Read-out: Cytochrome P450 (CYP2B6), CYP2B6 (gene 1555)
# assay-method-text: LTEA_HepaRG_CYP2B6: Life Technologies and Expression Analysis (LTEA) Assay for Cytochrome P450 (CYP2B6) using HepaRG (AID 2283481)
# settings: mRNA level, 48 h; actives raise or lower the signal
Activity calls are given as the source filed them. How the source made its calls: active means hit-call score of the fitted dose curve at least 0.9, where 1 is the maximum; inactive means score below 0.9.
Choose the fitting class; nothing outside class 1 (active), class 0 (inactive) is accepted.

Please indicate how the test categorized `N=C(N)c1ccc(OCCCCCOc2ccc(C(=N)N)cc2)cc1` . class 1

Recorded test outcome, item `CCCCC=O` class 0

Field: outcome | Entry: `CCCCCCCCCCCCCCC` class 1

Would you mind telling me which call this test gave `O=C(CCCN1CCC(O)(c2ccc(Cl)cc2)CC1)c1ccc(F)cc1` ? class 1

Tell me the recorded outcome of this test for `CC(=O)Nc1ccc(O)cc1` . class 0

Tell me the assay call for `OCC(CO)(CBr)CBr` please. class 0
